Just for reference, ChEMBL document CHEMBL5376020 is where these values come from.

test system: SW-620; assay: Cytotoxicity against human SW620 cells assessed as cell mortality rate at 5 uM measured after 48 hrs by CCK-8 method relative to control; type: functional
Consider the following compounds; for each one, report its mortality at 5 µM.

In: Value lookup for mortality at 5 µM; key = "COc1cc2c(cc1OC)CN(CCc1ccc(NC(=O)c3ccccc3NC(=O)C34CC5CC(CC(C5)C3)C4)cc1)CC2"
Out: < 2%

In: Value lookup for mortality at 5 µM; key = "COc1cc2c(cc1OC)CN(CCc1ccc(NC(=O)c3ccccc3NC(=O)CCNC(=O)CC34CC5CC(CC(C5)C3)C4)cc1)CC2"
Out: < 6%

In: Value lookup for mortality at 5 µM; key = "COc1cc2c(cc1OC)CN(CCc1ccc(NC(=O)c3ccccc3NC(=O)c3ccc(C(=O)NCCNC(=O)CC45CC6CC(CC(C6)C4)C5)cc3)cc1)CC2"
Out: < 6%

In: Value lookup for mortality at 5 µM; key = "COc1cc2c(cc1OC)CN(CCc1ccc(NC(=O)c3ccccc3NC(=O)c3ccc(NC(=O)CC45CC6CC(CC(C6)C4)C5)cc3)cc1)CC2"
Out: < 6%

In: Value lookup for mortality at 5 µM; key = "COc1cc2c(cc1OC)CN(CCc1ccc(NC(=O)c3ccccc3NC(=O)CC34CC5CC(CC(C5)C3)C4)cc1)CC2"
Out: < 2%

In: Value lookup for mortality at 5 µM; key = "COc1cc2c(cc1OC)CN(CCc1ccc(NC(=O)c3ccccc3NC(=O)c3ccc(C(=O)N4CCN(C(=O)CC56CC7CC(CC(C7)C5)C6)CC4)cc3)cc1)CC2"
Out: < 2%

In: Value lookup for mortality at 5 µM; key = "COc1ccc(C(=O)Nc2ccccc2C(=O)Nc2ccc(CCN3CCc4cc(OC)c(OC)cc4C3)cc2)cc1OC"
Out: 9%

----------
system: SW-620; assay: Reversal fold, ratio of Doxorubicin IC50 to test compound IC50 for reversal of doxorubicin-induced multi-drug resistance in human SW620 cells measured after 48 hrs by CCK-8 method; format: functional
Consider the following compounds; for each one, report its Ratio IC50.
Just the number.

In: Value lookup for Ratio IC50; key = "COc1cc2c(cc1OC)CN(CCc1ccc(NC(=O)c3ccccc3NC(=O)c3ccc(C(=O)NCCNC(=O)CC45CC6CC(CC(C6)C4)C5)cc3)cc1)CC2"
Out: 1.8

In: Value lookup for Ratio IC50; key = "COc1cc2c(cc1OC)CN(CCc1ccc(NC(=O)c3ccccc3NC(=O)c3ccccc3N)cc1)CC2"
Out: 1.1

In: Value lookup for Ratio IC50; key = "COC(=O)c1ccc(C(=O)Nc2ccccc2C(=O)Nc2ccc(CCN3CCc4cc(OC)c(OC)cc4C3)cc2)cc1"
Out: 1.9

In: Value lookup for Ratio IC50; key = "COc1cc2c(cc1OC)CN(CCc1ccc(NC(=O)c3ccccc3NC(=O)c3ccc(N)cc3)cc1)CC2"
Out: 1.5

In: Value lookup for Ratio IC50; key = "COc1cc2c(cc1OC)CN(CCc1ccc(NC(=O)c3ccccc3NC(=O)c3ccc(C(=O)N4CCN(C(=O)CC56CC7CC(CC(C7)C5)C6)CC4)cc3)cc1)CC2"
Out: 1.9

In: Value lookup for Ratio IC50; key = "COc1cc2c(cc1OC)CN(CCc1ccc(NC(=O)c3ccccc3NC(=O)C34CC5CC(CC(C5)C3)C4)cc1)CC2"
Out: 1.8

In: Value lookup for Ratio IC50; key = "COc1cccc2c1C(=O)c1c(O)c3c(c(O)c1C2=O)C[C@@](O)(C(=O)CO)C[C@@H]3O[C@H]1C[C@H](N)[C@H](O)[C@H](C)O1"
Out: 1

In: Value lookup for Ratio IC50; key = "COc1cc2c(cc1OC)CN(CCc1ccc(NC(=O)c3ccccc3NC(=O)c3ccc(NC(=O)CC45CC6CC(CC(C6)C4)C5)cc3)cc1)CC2"
Out: 0.5

In: Value lookup for Ratio IC50; key = "COc1cc2c(cc1OC)CN(CCc1ccc(NC(=O)c3ccccc3NC(=O)CCNC(=O)CC34CC5CC(CC(C5)C3)C4)cc1)CC2"
Out: 0.7

In: Value lookup for Ratio IC50; key = "COc1cc2c(cc1OC)CN(CCc1ccc(NC(=O)c3ccccc3NC(=O)CC34CC5CC(CC(C5)C3)C4)cc1)CC2"
Out: 0.9

In: Value lookup for Ratio IC50; key = "COc1ccc(C(=O)Nc2ccccc2C(=O)Nc2ccc(CCN3CCc4cc(OC)c(OC)cc4C3)cc2)cc1OC"
Out: 4

In: Value lookup for Ratio IC50; key = "COc1cc2c(cc1OC)CN(CCc1ccc(NC(=O)c3ccccc3NC(=O)c3ccc(C(=O)O)cc3)cc1)CC2"
Out: 0.7
